Tested on: MDA-MB-231 (breast adenocarcinoma)
Assay: Antiproliferative activity, sulforhodamine B assay
Assay type: cell-based, human
Settings: SRB, 72 h incubation; read-out: IC50 ± SD, MDA-MB-231
MEASURED_PROPERTY: pIC50
Numbers only, as −log10 of the molar value.

Measured pIC50 of [NH2][Pt]([NH2])([Cl])[Cl] [CDDP, cisplatin, reference compound] : 4.61

====

Tested on: MCF-7 (breast adenocarcinoma)
Assay: Antiproliferative activity, sulforhodamine B assay
Assay type: cell-based, human
Conditions: SRB, 72 h incubation; read-out: IC50 ± SD, MCF-7
MEASURED_PROPERTY: pIC50
One number for each entry, as −log10 of the molar value.

Noted for [NH2][Pt]([NH2])([Cl])[Cl] [CDDP, cisplatin, reference compound] : its pIC50 reads 5.22

====

System: UM-UC-3 (urinary bladder transitional cell carcinoma)
Test: Antiproliferative activity, sulforhodamine B assay
Assay type: cell-based, human
Conditions: SRB, 72 h incubation; read-out: IC50 ± SD, UM-UC-3
MEASURED_PROPERTY: pIC50
Give bare numbers, as −log10 of the molar value.

So for [NH2][Pt]([NH2])([Cl])[Cl] [CDDP, cisplatin, reference compound] , the logged pIC50 turned out to be 5.62

====

Tested on: LoVo (colorectal adenocarcinoma)
Assay: Antiproliferative activity, sulforhodamine B assay
Assay type: cell-based, human
Settings: SRB, 72 h incubation; read-out: IC50 ± SD, LoVo
MEASURED_PROPERTY: IC50
# answer = value followed by unit

Form field IC50, entry [NH2][Pt]([NH2])([Cl])[Cl] [CDDP, cisplatin, reference compound] : 4.4 µM

====

System: UM-UC-3^CDDP/GEM (resistant to cisplatin and gemcitabine)
Test: Antiproliferative activity, sulforhodamine B assay
Type: cell-based, human
Details: SRB, 72 h incubation, read-out: IC50 ± SD, UM-UC-3^CDDP/GEM
MEASURED_PROPERTY: IC50 (µM)
Give bare numbers, in µM.

// IC50 value for [NH2][Pt]([NH2])([Cl])[Cl] [CDDP, cisplatin, reference compound] : 25.1

====

Assignment: determine reported IC50 for the given molecules.
Tested on: UM-UC-3^GEM (gemcitabine-resistant)
Experiment: Antiproliferative activity, sulforhodamine B assay
Type: cell-based, human
Details: Homo sapiens, SRB, 72 h incubation, read-out: IC50 ± SD, UM-UC-3^GEM
Structures can show the parent of a compound that is named as a salt.
Give bare numbers, in µM.

// each listed molecule needs a value for IC50
1. COC(=O)/C(=C/Sc1nc2ccccc2s1)NC(=O)[C@@H](N)Cc1ccccc1 [Compound 10d, HCl Phe-ΔCys(S-benzothiazole)-OMe]
2. COC(=O)/C(=C/Sc1nc2cc(OC)ccc2o1)NC(=O)CNC(=O)OC(C)(C)C [Compound 6c, Boc-Gly-ΔCys(S-5-methoxybenzoxazole)-OMe]
3. COC(=O)/C(=C/Sc1nc2ccccc2s1)NC(=O)[C@H](Cc1ccccc1)NC(=O)OC(C)(C)C [Compound 7d, Boc-Phe-ΔCys(S-benzothiazole)-OMe]
4. COC(=O)/C(=C/Sc1nc2ccccc2s1)NC(=O)CNC(=O)OC(C)(C)C [Compound 6d, Boc-Gly-ΔCys(S-benzothiazole)-OMe]
5. COC(=O)/C(=C/Sc1nc(-c2ccccc2)c[nH]1)NC(=O)[C@H](Cc1ccccc1)NC(=O)OC(C)(C)C [Compound 7b, Boc-Phe-ΔCys(S-4-phenylimidazole)-OMe]

1: 67.8; 2: 5.2; 3: 8; 4: 4.6; 5: 19.9

# batch size: 3; output IC50 per entry
1. COC(=O)/C(=C/Sc1nc(-c2ccccc2)c[nH]1)NC(=O)CNC(=O)OC(C)(C)C [Compound 6b, Boc-Gly-ΔCys(S-4-phenylimidazole)-OMe]
2. COC(=O)/C(=C/Sc1nc2cc(OC)ccc2o1)NC(=O)[C@H](Cc1ccccc1)NC(=O)OC(C)(C)C [Compound 7c, Boc-Phe-ΔCys(S-5-methoxybenzoxazole)-OMe]
3. COC(=O)/C(=C/Sc1nc[nH]n1)NC(=O)[C@H](Cc1ccccc1)NC(=O)OC(C)(C)C [Compound 7a, Boc-Phe-ΔCys(S-triazole)-OMe]

[35.1, 7, 65.2]

====

System: Balb/3T3 (non-tumorigenic murine fibroblasts)
Experiment: Antiproliferative activity, sulforhodamine B assay
Type: cell-based
Conditions: Mus musculus, BALB/3T3; SRB, 72 h incubation; non-tumorigenic line; read-out: IC50 ± SD, Balb/3T3
Where a name gives a salt, the structure may show the parent alone.
MEASURED_PROPERTY: IC50 (µM)
Answers are plain numbers, in µM.

Illustrative cases are given below, each with its answer.
>  <COMPOUND>
COC(=O)/C(=C/Sc1nc[nH]n1)NC(=O)[C@H](Cc1ccccc1)NC(=O)OC(C)(C)C [Compound 7a, Boc-Phe-ΔCys(S-triazole)-OMe]

>  <VALUE>
19.7

$$$$
>  <COMPOUND>
COC(=O)/C(=C/Sc1nc(-c2ccccc2)c[nH]1)NC(=O)[C@H](Cc1ccccc1)NC(=O)OC(C)(C)C [Compound 7b, Boc-Phe-ΔCys(S-4-phenylimidazole)-OMe]

>  <VALUE>
7.6

$$$$
>  <COMPOUND>
COC(=O)/C(=C/Sc1nc2ccccc2s1)NC(=O)CNC(=O)OC(C)(C)C [Compound 6d, Boc-Gly-ΔCys(S-benzothiazole)-OMe]

>  <VALUE>
5.8

$$$$
>  <COMPOUND>
COC(=O)/C(=C/Sc1nc2ccccc2s1)NC(=O)[C@H](Cc1ccccc1)NC(=O)OC(C)(C)C [Compound 7d, Boc-Phe-ΔCys(S-benzothiazole)-OMe]

>  <VALUE>
3.1

$$$$
>  <COMPOUND>
COC(=O)/C(=C/Sc1nc(-c2ccccc2)c[nH]1)NC(=O)CNC(=O)OC(C)(C)C [Compound 6b, Boc-Gly-ΔCys(S-4-phenylimidazole)-OMe]

>  <VALUE>
38.4

$$$$

Please go through the list and note IC50 for each compound.
1. COC(=O)/C(=C/Sc1nc2ccccc2s1)NC(=O)[C@@H](N)Cc1ccccc1 [Compound 10d, HCl Phe-ΔCys(S-benzothiazole)-OMe]
2. COC(=O)/C(=C/Sc1nc2cc(OC)ccc2o1)NC(=O)[C@H](Cc1ccccc1)NC(=O)OC(C)(C)C [Compound 7c, Boc-Phe-ΔCys(S-5-methoxybenzoxazole)-OMe]

[42.2, 5.3]

Please fill in: IC50 reported for COC(=O)/C(=C/Sc1nc2cc(OC)ccc2o1)NC(=O)CNC(=O)OC(C)(C)C [Compound 6c, Boc-Gly-ΔCys(S-5-methoxybenzoxazole)-OMe] = 5.3
